For each record, write down the corresponding Emax.
System under test: human mu opioid receptor (Homo sapiens)
Construct: expressed in transfected cells; host or cells: CHO-K1
Sequence (P35372 whole entry): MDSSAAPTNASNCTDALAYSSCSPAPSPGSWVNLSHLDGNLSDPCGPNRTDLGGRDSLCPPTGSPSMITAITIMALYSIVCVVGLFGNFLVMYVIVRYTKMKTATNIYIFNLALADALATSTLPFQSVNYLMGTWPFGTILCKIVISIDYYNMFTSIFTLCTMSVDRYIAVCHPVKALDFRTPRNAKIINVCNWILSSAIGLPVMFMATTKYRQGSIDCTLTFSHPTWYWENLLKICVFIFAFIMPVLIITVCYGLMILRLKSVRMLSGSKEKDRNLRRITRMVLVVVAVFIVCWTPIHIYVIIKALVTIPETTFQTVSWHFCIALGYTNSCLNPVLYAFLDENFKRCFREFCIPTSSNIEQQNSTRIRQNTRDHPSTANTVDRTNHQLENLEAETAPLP
Assay procedure: Human mu GTP-Eu nucleotide exchange assay (agonist mediated activation) in CHO-K1 membranes
Type: biochemical
Condition notes: bound GTP-Eu relative to DAMGO (IA=100); read-out: intrinsic activity (IA)
Description: a. Mu Opioid Receptor Membrane Preparation: Protein concentration was determined using a Bio-Rad Bradford Protein Assay kit. Membranes were stored in frozen aliquots at −80° C., until required. Lyophilized GTP-Eu and GDP were diluted to 10 μM and 2 mM, respectively, in double distilled H2O then mixed and permitted to sit at room temperature for 30 minutes prior to transfer to individual aliquots samples for storage at −20° C. b. Human Mu GTP-Eu Nucleotide Exchange Assay […]
Numbers only, in %.

{"Molecule": "CS(=O)(=O)CC(=O)N(CCc1ccccc1)CCN1[C@@H]2CC[C@H]1C[C@@H](c1cccc(C(N)=O)c1)C2", "Emax, %": 14}
{"Molecule": "NC(=O)c1cccc([C@H]2C[C@H]3CC[C@@H](C2)N3CCN(CCc2ccccc2)C(=O)CO)c1", "Emax, %": -2}
{"Molecule": "O=C(CO)N(CCN1[C@@H]2CC[C@H]1C[C@@H](c1cccc(O)c1)C2)Cc1ccccc1", "Emax, %": 6}
{"Molecule": "NC(=O)c1cccc([C@H]2C[C@H]3CC[C@@H](C2)N3CCN(Cc2ccccc2)C(=O)CO)c1 [Example 46B]", "Emax, %": -3}

Lookup: I have this molecule here, NC(=O)c1cccc([C@H]2C[C@H]3CC[C@@H](C2)N3CCN(CC2CCCCC2)C(=O)[C@@H](O)CO)c1 , and I need its recorded Emax.
Found: -3
